Cited source: patent US8859584B2

ASSAY SYSTEM: human TRPV1 (Homo sapiens, UniProt Q8NER1)
Construct: expressed in transfected cells
Sequence (Q8NER1 whole entry): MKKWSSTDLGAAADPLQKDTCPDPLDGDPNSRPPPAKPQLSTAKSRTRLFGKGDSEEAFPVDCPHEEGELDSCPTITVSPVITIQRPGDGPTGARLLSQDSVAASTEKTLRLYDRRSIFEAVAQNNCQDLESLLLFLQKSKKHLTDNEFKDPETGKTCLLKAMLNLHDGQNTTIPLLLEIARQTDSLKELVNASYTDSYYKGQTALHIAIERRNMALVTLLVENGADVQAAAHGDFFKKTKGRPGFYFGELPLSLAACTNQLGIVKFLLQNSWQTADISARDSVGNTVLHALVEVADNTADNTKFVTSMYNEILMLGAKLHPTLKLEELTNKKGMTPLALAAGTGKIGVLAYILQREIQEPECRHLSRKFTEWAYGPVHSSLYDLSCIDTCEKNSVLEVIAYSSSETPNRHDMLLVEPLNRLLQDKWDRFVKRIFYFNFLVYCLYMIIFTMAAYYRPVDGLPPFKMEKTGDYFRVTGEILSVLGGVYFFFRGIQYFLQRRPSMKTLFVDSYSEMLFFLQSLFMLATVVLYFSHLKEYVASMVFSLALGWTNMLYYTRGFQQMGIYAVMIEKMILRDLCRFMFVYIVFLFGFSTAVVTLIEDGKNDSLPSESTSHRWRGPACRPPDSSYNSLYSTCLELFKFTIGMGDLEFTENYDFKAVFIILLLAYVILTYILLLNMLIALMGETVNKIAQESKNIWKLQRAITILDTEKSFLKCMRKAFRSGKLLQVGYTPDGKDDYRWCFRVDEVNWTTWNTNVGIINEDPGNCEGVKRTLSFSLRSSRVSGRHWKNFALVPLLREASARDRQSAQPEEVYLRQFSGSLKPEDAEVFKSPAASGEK
TEST SUMMARY: Acid Activation Assay (pH 5.0, FLIPR intracellular Ca2+, recombinant HEK293 cells)
Type: cell-based
CONDITION SET: percentage of maximal pH 5.0-induced response remaining; HEK293 hTRPV1; max concentration 37.5 μM
VALUE KIND: human TRPV1 H+ (max % remain)
Respond with the figure and its unit, in that order.

CC1(C)C[C@@H](NC(=O)Nc2cccc3c2C[C@H](O)C3)c2ccc(F)c(Cl)c2O1 ... 77%

Q) Can you look up the measured human TRPV1 H+ (max % remain) of O=C(Nc1ccc(F)c2c1C[C@@H](O)C2)N[C@@H]1CC2(CCC2)Oc2ccc(F)cc21 for me?
A) 38%

Q) Can you look up the measured human TRPV1 H+ (max % remain) of O=C(Nc1cccc2c1C[C@H](O)C2)N[C@@H]1CC(CF)(CF)Oc2ccc(F)cc21 for me?
A) 63%

Q) Can you look up the measured human TRPV1 H+ (max % remain) of O=C(Nc1cccc2c1C[C@@H](O)C2)N[C@@H]1CC(CF)(CF)Oc2cc(Cl)ccc21 for me?
A) 6%
